Test system: HL 60 cells
Measurement description: Differentiation of HL 60 leukemic cells in vitro
Assay type: cell-based
Assay conditions: in words, FIGS. 3-4
Measured metric: biological activity in a test of differentiation of HL 60 cells

{"columns": ["Molecule", "Value"],
 "data": [
  ["C=C1CC[C@H](O)C/C1=C/C=C1\\CCC[C@]2(C)[C@@H]([C@H](C)CCCC(C)(C)O)CC[C@@H]12", "of low activity"],
  ["C=C1/C(=C\\C=C2/C[C@H](CCO)C[C@]3(C)[C@@H]([C@H](C)CCCC(C)(C)O)CC[C@@H]23)C[C@@H](O)C[C@@H]1O", "of low activity"],
  ["C=C1CCC(O)CC1=CC=C1CC(CCO)CC2(C)C1CCC2C(C)CCCC(C)(C)O (stereo not shown) [compound 56, 11-(2-hydroxyethyl)-25-OH-vitamin D3]", "of low activity"]
]}
